molecular target: Platelet-derived growth factor receptor beta (Rattus norvegicus); experiment: Inhibition of PDGF-BB induced PDGF-B receptor autophosphorylation in rat mesangial cells.; assay type: functional, cell-based
pIC50: −log10 of the molar value.
Use 5 as the dividing line for pIC50, with the line itself on the Y side and lower values as N.

// below: answered compounds
(Q) Say whether COc1ccc(Oc2ncnc3cc(OC)c(OC)cc23)cc1OC shows pIC50 of 5 or more.
(A) Y

(Q) Say whether COc1cc2nccc(Oc3cccc([N+](=O)[O-])c3)c2cc1OC shows pIC50 of 5 or more.
(A) Y

(Q) Say whether COc1ccc(Nc2ncnc3cc(OC)c(OC)cc23)cc1OC shows pIC50 of 5 or more.
(A) Y

(Q) Say whether COc1cc2ncnc(Oc3cccc(Br)c3)c2cc1OC shows pIC50 of 5 or more.
(A) N

(Q) Say whether COc1ccc(Oc2ccnc3cc(OC)c(OC)cc23)cc1 shows pIC50 of 5 or more.
(A) Y

(Q) Say whether COc1cc2nccc(Nc3cccc(Br)c3)c2cc1OC shows pIC50 of 5 or more.
(A) N

(Q) Say whether COc1cc2nccc(Oc3c(OC)cccc3OC)c2cc1OC shows pIC50 of 5 or more.
(A) N

(Q) Say whether COc1cc2nccc(Oc3cccc(N)c3)c2cc1OC shows pIC50 of 5 or more.
(A) Y

***
(Q) Say whether COc1cc2nccc(Oc3cccc(F)c3)c2cc1OC shows pIC50 of 5 or more.
(A) Y

====

Listing of recorded pIC50 by entry.
molecular target: Epidermal growth factor receptor (Homo sapiens); assay: Inhibition of epidermal growth factor receptor (EGF-R) autophosphorylation in A431 cells
Sequence (P00533 whole entry): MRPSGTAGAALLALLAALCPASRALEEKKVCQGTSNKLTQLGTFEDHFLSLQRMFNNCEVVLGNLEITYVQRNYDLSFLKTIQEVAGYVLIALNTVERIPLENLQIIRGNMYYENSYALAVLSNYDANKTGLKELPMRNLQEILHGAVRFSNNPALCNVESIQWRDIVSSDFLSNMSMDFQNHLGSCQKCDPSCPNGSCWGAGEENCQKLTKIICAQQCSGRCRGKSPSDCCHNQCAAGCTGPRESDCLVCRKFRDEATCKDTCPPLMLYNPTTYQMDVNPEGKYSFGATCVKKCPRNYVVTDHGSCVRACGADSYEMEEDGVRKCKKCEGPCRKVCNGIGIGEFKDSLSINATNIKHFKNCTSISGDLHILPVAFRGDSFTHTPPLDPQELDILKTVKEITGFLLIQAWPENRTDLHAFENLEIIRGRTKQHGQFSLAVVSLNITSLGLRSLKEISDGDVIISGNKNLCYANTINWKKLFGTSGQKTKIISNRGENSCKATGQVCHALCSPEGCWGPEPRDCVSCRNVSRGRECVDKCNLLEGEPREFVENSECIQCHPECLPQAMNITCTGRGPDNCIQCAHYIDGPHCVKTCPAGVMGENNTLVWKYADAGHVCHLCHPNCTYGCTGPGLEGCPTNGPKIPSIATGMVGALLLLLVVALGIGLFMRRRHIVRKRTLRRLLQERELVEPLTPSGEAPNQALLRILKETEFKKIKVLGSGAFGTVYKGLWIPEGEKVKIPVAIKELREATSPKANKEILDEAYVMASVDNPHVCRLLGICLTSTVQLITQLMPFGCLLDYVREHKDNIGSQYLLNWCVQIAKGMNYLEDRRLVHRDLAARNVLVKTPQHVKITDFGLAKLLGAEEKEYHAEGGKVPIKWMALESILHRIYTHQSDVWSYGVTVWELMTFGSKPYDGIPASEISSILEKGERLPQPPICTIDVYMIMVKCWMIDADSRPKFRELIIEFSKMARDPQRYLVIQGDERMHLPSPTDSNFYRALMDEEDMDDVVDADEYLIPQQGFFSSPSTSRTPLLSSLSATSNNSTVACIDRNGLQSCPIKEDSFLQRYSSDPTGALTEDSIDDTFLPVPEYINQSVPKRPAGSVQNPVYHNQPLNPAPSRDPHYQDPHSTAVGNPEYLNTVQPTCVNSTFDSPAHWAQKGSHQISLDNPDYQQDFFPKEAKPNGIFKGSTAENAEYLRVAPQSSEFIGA
API: returns pIC50 as number; meaning -log10 of concentration in mol/L.

Record excerpt, results attached:
(Q) Could you tell me which pIC50 is on file for COc1ccc(Nc2ccnc3cc(OC)c(OC)cc23)cc1OC ?
(A) 4.09

(Q) Could you tell me which pIC50 is on file for COc1cc2ncnc(Oc3cccc(Br)c3)c2cc1OC ?
(A) 7.15

***
(Q) Could you tell me which pIC50 is on file for COc1cc2nccc(Oc3cccc(Br)c3)c2cc1OC ?
(A) 5.60

(Q) Could you tell me which pIC50 is on file for COc1ccc(Nc2ncnc3cc(OC)c(OC)cc23)cc1OC ?
(A) 5.55

====

molecular target: Platelet-derived growth factor receptor beta (Rattus norvegicus, UniProt Q05030); assay: Inhibition of PDGF-BB induced PDGF-B receptor autophosphorylation in rat mesangial cells.
Sequence (Q05030 whole entry): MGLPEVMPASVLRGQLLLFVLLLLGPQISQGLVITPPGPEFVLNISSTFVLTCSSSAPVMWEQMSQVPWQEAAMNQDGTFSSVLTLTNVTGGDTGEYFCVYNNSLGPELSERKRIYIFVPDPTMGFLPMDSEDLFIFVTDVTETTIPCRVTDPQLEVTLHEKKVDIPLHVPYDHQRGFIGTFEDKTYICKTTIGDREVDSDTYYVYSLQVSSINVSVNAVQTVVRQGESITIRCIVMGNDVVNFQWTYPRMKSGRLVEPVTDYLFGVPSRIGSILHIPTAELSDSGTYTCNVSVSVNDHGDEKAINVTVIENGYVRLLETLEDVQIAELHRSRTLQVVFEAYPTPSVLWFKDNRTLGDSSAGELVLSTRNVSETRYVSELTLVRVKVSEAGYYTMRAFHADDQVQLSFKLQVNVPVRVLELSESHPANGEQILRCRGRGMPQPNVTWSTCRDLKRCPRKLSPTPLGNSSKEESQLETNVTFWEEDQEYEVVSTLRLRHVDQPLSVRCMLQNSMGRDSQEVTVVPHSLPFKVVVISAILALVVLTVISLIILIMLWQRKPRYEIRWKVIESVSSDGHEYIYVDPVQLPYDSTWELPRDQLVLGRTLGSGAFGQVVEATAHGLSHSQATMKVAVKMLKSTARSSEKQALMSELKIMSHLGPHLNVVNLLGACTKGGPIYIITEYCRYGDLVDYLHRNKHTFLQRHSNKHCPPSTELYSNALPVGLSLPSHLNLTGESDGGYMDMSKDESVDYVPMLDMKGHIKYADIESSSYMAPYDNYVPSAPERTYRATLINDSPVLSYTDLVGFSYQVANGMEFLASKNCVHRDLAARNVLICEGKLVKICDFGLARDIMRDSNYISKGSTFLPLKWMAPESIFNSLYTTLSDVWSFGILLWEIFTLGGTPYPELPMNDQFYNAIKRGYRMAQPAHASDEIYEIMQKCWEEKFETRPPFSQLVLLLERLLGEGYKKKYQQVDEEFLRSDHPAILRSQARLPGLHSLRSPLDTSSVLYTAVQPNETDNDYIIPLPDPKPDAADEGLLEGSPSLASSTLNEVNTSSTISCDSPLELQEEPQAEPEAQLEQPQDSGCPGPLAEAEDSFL
parameter: IC50 (nM)
Please state the figure in nM; there is no need to write the unit.

(Q) Could you tell me which IC50 is on file for COc1cc2nccc(Oc3ccccc3OC)c2cc1OC ?
(A) 600

(Q) Could you tell me which IC50 is on file for COc1cc2nccc(Oc3cccc(OC)c3OC)c2cc1OC ?
(A) 4400

(Q) Could you tell me which IC50 is on file for COc1cc2nccc(Oc3ccccc3)c2cc1OC ?
(A) 760

(Q) Could you tell me which IC50 is on file for COc1cc2nccc(Oc3cccc(C)c3)c2cc1OC ?
(A) 6900

(Q) Could you tell me which IC50 is on file for COc1cc2nccc(Oc3cccc(O)c3)c2cc1OC ?
(A) 560

***
(Q) Could you tell me which IC50 is on file for COc1ccc(Nc2ccnc3cc(OC)c(OC)cc23)cc1OC ?
(A) 2600

(Q) Could you tell me which IC50 is on file for COc1cc(OC)cc(Oc2ccnc3cc(OC)c(OC)cc23)c1 ?
(A) 5500

====

biological target: Platelet-derived growth factor receptor beta (Rattus norvegicus, UniProt Q05030); assay: Inhibition of PDGF-BB induced PDGF-B receptor autophosphorylation in rat mesangial cells.
parameter: IC50 (µM)
Please state the figure in µM; there is no need to write the unit.

(Q) Could you tell me which IC50 is on file for COc1cc2nccc(Oc3cccc(Br)c3)c2cc1OC ?
(A) 8.4

(Q) Could you tell me which IC50 is on file for CCOc1cccc(Oc2ccnc3cc(OC)c(OC)cc23)c1 ?
(A) 12.9

Let us examine a further case.
(Q) Could you tell me which IC50 is on file for CCc1cccc(Oc2ccnc3cc(OC)c(OC)cc23)c1 ?
(A) 8.4

Values compiled from ChEMBL document CHEMBL1152084.
